Recorded values, source ChEMBL document CHEMBL5724914.

cond: human gut metagenome, 24 h, 2 µM; further: call rule not given here
value.kind: Bacterial Biotransformation

# annotated cases, reported Bacterial Biotransformation shown
compound	reading
CCCc1nn(C)c2c(=O)[nH]c(-c3cc(S(=O)(=O)N4CCN(C)CC4)ccc3OCC)nc12.O=C(O)CC(O)(CC(=O)O)C(=O)O [SILDENAFIL CITRATE]	Compound NOT metabolized
CN1CCOC(c2ccccc2)c2ccccc2C1 (configuration not stated)	Compound NOT metabolized
CCOC(=O)[C@H](CCc1ccccc1)N[C@@H](C)C(=O)N1[C@H](C(=O)O)C[C@H]2CCCC[C@@H]21	Compound metabolized
CNC(=C[N+](=O)[O-])NCCSCc1ccc(CN(C)C)o1	Compound metabolized
CN(C)C(=O)C(CCN1CCC(O)(c2ccc(Cl)cc2)CC1)(c1ccccc1)c1ccccc1 [LOPERAMIDE]	Compound metabolized
OCCN1CCN(CCCN2c3ccccc3Sc3ccc(C(F)(F)F)cc32)CC1	Compound metabolized
O=C1NCC2(CCN(CCc3ccccc3)CC2)O1 [FENSPIRIDE]	Compound NOT metabolized
NC12CC3CC(CC(C3)C1)C2	Compound NOT metabolized

Note: attention shifts to another entry.
Asked: Can you share its Bacterial Biotransformation? I mean this compound: CC[C@@H](CO)NC(=O)[C@@H]1C=C2c3cccc4c3c(cn4C)C[C@H]2N(C)C1.O=C(O)/C=C\C(=O)O [METHYSERGIDE MALEATE]
Given back: Compound NOT metabolized
